Here, each record is paired with measured protein stability index data.
method notes: protein stability index of a GFP-peptide fusion (GPS, HEK-293T) (PSI 1-6); higher = more stable;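 note: 24-mer peptide tiles fused after GFP, lentivirally expressed, FACS-sorted into six equal bins by GFP/DsRed ratio, decoded by Illumina sequencing, PSI is the read-weighted mean bin number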
conditions used: treatment: MLN4924 1 uM, 8 h; c terminus: a fixed tail appended
Give your answer as a number; write no unit.

// below: answered sequences
- polymer sequence: "KCFSCNSNLHRHQRTHTGEKPYKC [ZNF263]"
  protein stability index: 3.45
- polymer sequence: "EVNVLNDMRDTPLHRAAFTGRKIC [OSBPL1A]"
  protein stability index: 3.26
- polymer sequence: "VSSSEQLQSYQAEIIELRRTVNAL [KRT33B]"
  protein stability index: 3.2
- polymer sequence: "TVPGQALACGSNRFNKLGLDHLSL [NEK8]"
  protein stability index: 2.45
- polymer sequence: "AVVVLDQGSRHWQKLREESAARVV [DUSP5]"
  protein stability index: 2.72
- polymer sequence: "IDYKTTTILLDGQRVKLKLWDTSG [RAB40A]"
  protein stability index: 2.36

[in] What protein stability index value was documented for this sequence, SRRYTEMALPFFSLAEVRVGYQSQ [MYORG] ?
[out] 2.29

====

method notes: protein stability index of a GFP-peptide fusion (GPS, HEK-293T) (PSI 1-6); higher = more stable
conditions used: treatment: MLN4924 1 uM, 8 h; c terminus: a fixed tail appended
Binary classification by protein stability index, with 4 as an inclusive lower bound for Condition met; all other cases are Condition not met.

[in] Could you please find out whether KENPECPVLKRSSESMENINSGYE [KMT2E] has protein stability index that meets 4 or exceeds it?
[out] Condition met

[in] // inclusive: protein stability index at least 4? input: EERALLLGRMGKHEQALFIYVHIL [VPS39]
[out] Condition not met

[in] hey, is protein stability index for this one >= 4? KVEEEIVTLRQVLAAKERHCGELK [TPD52L2]
[out] Condition met

[in] Given the entry SPKGTLPPAALESSDSANTTIEDE [CAMK2B] , answer whether its protein stability index meets or surpasses 4.
[out] Condition met

[in] Check the entry VWNRKLDLLCKTSHLSDTGISALV [WDR41] : does protein stability index equal or exceed 4?
[out] Condition not met

[in] # bool: protein stability index of KKLKKDDKKKELQELNELFKPVVA [ZC3H15] >= 4
[out] Condition met

[in] // inclusive: protein stability index at least 4? input: RRLRGEQRGQEPLGPGALHFDLRD [TCF25]
[out] Condition met

[in] // inclusive: protein stability index at least 4? input: PSLQHLCRMSIRRVMPTQEVQELP [WSB1]
[out] Condition not met

[in] Is protein stability index for LLTTSGIQFKKHEEEGIETQYFAE [CNOT7] at or above 4?
[out] Condition met

[in] Does the sequence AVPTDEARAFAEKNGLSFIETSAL [RAB11A] have recorded protein stability index that is 4 or more?
[out] Condition not met

[in] Entry ILIALVGATPSYHWDLAELLPNQS [SLC22A15] : is its protein stability index no less than 4?
[out] Condition not met

[in] Test whether the sequence LTKDEAAAHLKLTSIEEGYERSFI [IQUB] records protein stability index of 4 or higher.
[out] Condition not met

[in] Assess whether reported protein stability index for SLTDSVNHHSPGGSSDASGSYSST [ESRRG] sits at 4 or higher.
[out] Condition met

Recorded values, source the supplement of paper PMC10567573.
